This collection of values is drawn from paper PMC11480844.

B1: H2-Kb / Ed31 (parent complex)
chain 1: GQQVQQSPASLVLQEGENAELQCNFSTSLNSMQWFYQRPGGSLVSLFYNPSGTKHSGRLTSTTVIKERRSSLHISSSQTTDSGTYLCALEGNYAQGLTFGLGTRVSVFP
chain 2: ETAVFQTPNYHVTQVGNEVSFNCKQTLGHDTMYWYKQDSKKLLKIMFSYNNKQLIVNETVPRRFSPQSSDKAHLNLRIKSVEPEDSAVYLCASRSAGEQYFGPGTRLTVL
chain 3: not shown
chain 4: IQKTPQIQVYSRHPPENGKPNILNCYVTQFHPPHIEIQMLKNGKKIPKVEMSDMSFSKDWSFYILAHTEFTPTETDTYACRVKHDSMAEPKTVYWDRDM
chain 5: SIINFEKL

Variants of: B1
protocol text: % of reporter cells activated (NFAT-GFP), raw; note: test concentration or dose not given here
property: ratio to parent
Just the number.

Lookup: Please look up its ratio to parent: chain 5 E6F
Found: 0.0115

Lookup: What about chain 5 I3W ?
Found: 0.355

Lookup: What about chain 5 S1L ?
Found: 0.46

Lookup: What about chain 5 F5Q ?
Found: 0.49

Lookup: What about chain 5 L8Y ?
Found: 0.922

Lookup: What about chain 5 I2Q ?
Found: 0.897

Lookup: What about chain 5 L8N ?
Found: 0.69

Lookup: What about chain 5 K7V ?
Found: 0.247

Lookup: What about chain 5 F5C ?
Found: 0.68

Lookup: What about chain 5 I2G ?
Found: 1.11

Lookup: What about chain 5 F5L ?
Found: 0.821

Lookup: What about chain 5 S1M ?
Found: 0.898

Lookup: What about chain 5 F5K ?
Found: 0.509

Lookup: What about chain 5 L8W ?
Found: 0.766

Lookup: What about chain 5 K7G ?
Found: 0.186

Lookup: What about chain 5 L8A ?
Found: 0.898

Lookup: What about chain 5 N4W ?
Found: 0.42

Lookup: What about chain 5 E6L ?
Found: 0.0037

Lookup: What about chain 5 I2V ?
Found: 1.07

Lookup: What about chain 5 I3R ?
Found: 0.0501

Lookup: What about chain 5 S1T ?
Found: 0.99

Lookup: What about chain 5 L8E ?
Found: 0.687

Lookup: What about chain 5 N4V ?
Found: 0.132

Lookup: What about chain 5 S1V ?
Found: 0.551

Lookup: What about chain 5 E6Y ?
Found: 0.0864

Lookup: What about chain 5 E6D ?
Found: 0.458

Lookup: What about chain 5 F5P ?
Found: 0.261

Lookup: What about chain 5 I3Y ?
Found: 0.0382

Lookup: What about chain 5 E6R ?
Found: 0.00349

Lookup: What about chain 5 N4M ?
Found: 0.207

Lookup: What about chain 5 K7P ?
Found: 0.298

Lookup: What about chain 5 I3K ?
Found: 0.735

Lookup: What about chain 5 K7M ?
Found: 0.104

Lookup: What about chain 5 E6Q ?
Found: 0.111

Lookup: What about chain 5 N4L ?
Found: 0.198

Lookup: What about chain 5 S1G ?
Found: 1.04

Lookup: What about chain 5 K7I ?
Found: 0.176

Lookup: What about chain 5 S1D ?
Found: 0.504

Lookup: What about chain 5 F5G ?
Found: 0.529

Lookup: What about chain 5 I3G ?
Found: 0.309

Lookup: What about chain 5 I2A ?
Found: 1.18

Lookup: What about chain 5 I3D ?
Found: 0.375

Lookup: What about chain 5 E6G ?
Found: 0.435

Lookup: What about chain 5 N4T ?
Found: 0.156

Lookup: What about chain 5 I3T ?
Found: 0.548

Lookup: What about chain 5 I2F ?
Found: 0.795

Lookup: What about chain 5 F5Y ?
Found: 1.11

Lookup: What about chain 5 K7S ?
Found: 0.614

Lookup: What about chain 5 S1A ?
Found: 0.803

Lookup: What about chain 5 N4E ?
Found: 0.0188

Lookup: What about chain 5 I3S ?
Found: 0.38

Lookup: What about chain 5 I2W ?
Found: 0.863

Lookup: What about chain 5 L8H ?
Found: 0.802

Lookup: What about chain 5 L8D ?
Found: 0.549

Lookup: What about chain 5 E6N ?
Found: 0.0136

Lookup: What about chain 5 I2P ?
Found: 0.972

Lookup: What about chain 5 L8M ?
Found: 0.945

Lookup: What about chain 5 F5E ?
Found: 0.407

Lookup: What about chain 5 E6T ?
Found: 0.00208

Lookup: What about chain 5 E6W ?
Found: 0.00233

Lookup: What about chain 5 I2D ?
Found: 0.962

Lookup: What about chain 5 S1F ?
Found: 0.459

Lookup: What about chain 5 E6P ?
Found: 0.0101

Lookup: What about chain 5 L8G ?
Found: 0.711

Lookup: What about chain 5 I2T ?
Found: 1.09

Lookup: What about chain 5 L8Q ?
Found: 0.876

Lookup: What about chain 5 I2H ?
Found: 0.832

Lookup: What about chain 5 I3C ?
Found: 0.555

Lookup: What about chain 5 I2C ?
Found: 1.07

Lookup: What about chain 5 F5R ?
Found: 0.635

Lookup: What about chain 5 L8F ?
Found: 0.891

Lookup: What about chain 5 K7R ?
Found: 0.698

Lookup: What about chain 5 E6S ?
Found: 0.00329

Lookup: What about chain 5 N4G ?
Found: 0.083

Lookup: What about chain 5 S1E ?
Found: 0.561

Lookup: What about chain 5 S1R ?
Found: 0.532

Lookup: What about chain 5 E6C ?
Found: 0.00242

Lookup: What about chain 5 L8S ?
Found: 0.762

Lookup: What about chain 5 S1K ?
Found: 0.757

Lookup: What about chain 5 F5H ?
Found: 0.892
